All values here come from the NIST ThermoML archive (doi:10.1016/j.jct.2013.02.004).

Experiment: activity coefficient (dimensionless); of the first substance listed, at infinite dilution; xn = mol fraction of the nth substance listed
Conditions: 308.15 K; 101 kPa; Liquid; Chromatography; x1 = 0
metricName: activity coefficient

[
  {
    "molecule": "C1CCCCC1 [cyclohexane] + CCCCCC[n+]1ccc2ccccc2c1.N#C[S-]",
    "activity coefficient": 15.4
  },
  {
    "molecule": "C1CCCCCCC1 [cyclooctane] + CCCCCC[n+]1ccc2ccccc2c1.N#C[S-]",
    "activity coefficient": 18.8
  },
  {
    "molecule": "C=CCCCCCCCC [1-decene] + CCCCCC[n+]1ccc2ccccc2c1.N#C[S-]",
    "activity coefficient": 50.6
  },
  {
    "molecule": "CC1CCCCC1 [methylcyclohexane] + CCCCCC[n+]1ccc2ccccc2c1.N#C[S-]",
    "activity coefficient": 24.2
  },
  {
    "molecule": "C#CCCCC [1-hexyne] + CCCCCC[n+]1ccc2ccccc2c1.N#C[S-]",
    "activity coefficient": 3.57
  }
]

(P) C=CCCCC [hex-1-ene] + CCCCCC[n+]1ccc2ccccc2c1.N#C[S-]
(Q) CCCCCCCC [octane] + CCCCCC[n+]1ccc2ccccc2c1.N#C[S-]
(R) C#CCCCCC [1-heptyne] + CCCCCC[n+]1ccc2ccccc2c1.N#C[S-]
(S) C1=CCCCC1 [cyclohexene] + CCCCCC[n+]1ccc2ccccc2c1.N#C[S-]
**Query** Arrange the 4 molecules from largest to smallest activity coefficient. Record the ranking as a list of labels in the requested order.
**Result** Q, P, S, R
(Q: 64.1, P: 20.2, S: 7.2, R: 4.77)

(a) CCCOCCC [dipropyl ether] + CCCCCC[n+]1ccc2ccccc2c1.N#C[S-]
(b) CC(C)OC(C)C [diisopropyl ether] + CCCCCC[n+]1ccc2ccccc2c1.N#C[S-]
**Query** Would you kindly point out which of a and b has the smaller activity coefficient figure? Your choice should be expressed through its label.
**Result** a

(1) C1CCCCCC1 [cycloheptane] + CCCCCC[n+]1ccc2ccccc2c1.N#C[S-]
(2) CCC(C)(C)C [2,2-dimethylbutane] + CCCCCC[n+]1ccc2ccccc2c1.N#C[S-]
(3) CCCCCC [hexane] + CCCCCC[n+]1ccc2ccccc2c1.N#C[S-]
(4) C#CCCCCCC [1-octyne] + CCCCCC[n+]1ccc2ccccc2c1.N#C[S-]
(5) CCC(C)(C)OC [2-methoxy-2-methylbutane] + CCCCCC[n+]1ccc2ccccc2c1.N#C[S-]
**Query** Ordering: ascending activity coefficient. Record the ranking as a list of labels in the requested order.
**Result** 4, 5, 1, 3, 2
(4: 6.31, 5: 9.8, 1: 17, 3: 46.6, 2: 91.5)

(P) CCC(C)CC [3-methylpentane] + CCCCCC[n+]1ccc2ccccc2c1.N#C[S-]
(Q) C=CCCC [1-pentene] + CCCCCC[n+]1ccc2ccccc2c1.N#C[S-]
(R) COC(C)(C)C [2-methoxy-2-methylpropane] + CCCCCC[n+]1ccc2ccccc2c1.N#C[S-]
**Query** Ordering: ascending activity coefficient. Record the ranking as a list of labels in the requested order.
**Result** R, Q, P

(I) CCOC(C)(C)C [2-ethoxy-2-methylpropane] + CCCCCC[n+]1ccc2ccccc2c1.N#C[S-]
(II) CCCCCCC [heptane] + CCCCCC[n+]1ccc2ccccc2c1.N#C[S-]
**Query** Between the two listed entries I and II , which has its activity coefficient at the higher number? Your choice should be expressed through its label.
**Result** II

(1) C=CCCCCC [1-heptene] + CCCCCC[n+]1ccc2ccccc2c1.N#C[S-]
(2) C1CCCC1 [cyclopentane] + CCCCCC[n+]1ccc2ccccc2c1.N#C[S-]
(3) C#CCCC [1-pentyne] + CCCCCC[n+]1ccc2ccccc2c1.N#C[S-]
**Query** Arrange the 3 molecules from largest to smallest activity coefficient. Record the ranking as a list of labels in the requested order.
**Result** 1, 2, 3

(1) C=CCCCCCC [oct-1-ene] + CCCCCC[n+]1ccc2ccccc2c1.N#C[S-]
(2) CCCCCCCCC [nonane] + CCCCCC[n+]1ccc2ccccc2c1.N#C[S-]
**Query** Between the two listed entries 1 and 2 , which has its activity coefficient at the higher number? Your choice should be expressed through its label.
**Result** 2
